Recorded Ratio IC50, one value per entry.
Species: Homo sapiens
Assay: Selectivity index, ratio of IC50 for inhibition of human coagulation factor alpha-thrombin using Boc-Val-Pro-Arg-AMC as fluorogenic substrate to IC50 for inhibition of human coagulation factor XIIA using Boc-Gln-Gly-Arg-AMC as fluorogenic substrate incubated for 1 hr by fluorometric assay
// no unit, no text: just the number

Nc1nc(-c2ccccn2)nn1C(=O)Cc1ccccc1I    29
Nc1nc(-c2ccccn2)nn1C(=O)c1ccc(NC(=O)C(F)(F)F)cc1    24

Note to self: Ratio IC50 recorded for `Nc1nc(-c2ccccn2)nn1C(=O)c1cccc2ccccc12` was 13

====

Assay: Inhibition of porcine trypsin using Z-Gly-Gly-Arg-AMC as fluorogenic substrate measured at 1 min interval for 1 hr by fluorometric assay
Set-up: species or system Sus scrofa
readout_kind: pKi
# pKi: negative log10 of molar concentration; output just the value

// pKi value for `Cn1c(CNc2ccc(C(=N)N)cc2)nc2cc(C(=O)N(CCC(=O)O)c3ccccn3)ccc21` : 7.30

====

pIC50: −log10 of the molar value.
# collection of pIC50 values tested on Coagulation factor X (Homo sapiens, UniProt P00742)
# Sequence (P00742 41-179 limits assumed): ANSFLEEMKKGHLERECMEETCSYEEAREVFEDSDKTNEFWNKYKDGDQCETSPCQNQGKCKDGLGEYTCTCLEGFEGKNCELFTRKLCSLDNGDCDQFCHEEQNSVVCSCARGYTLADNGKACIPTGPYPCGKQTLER
# Sequence (P00742 235-488 limits assumed): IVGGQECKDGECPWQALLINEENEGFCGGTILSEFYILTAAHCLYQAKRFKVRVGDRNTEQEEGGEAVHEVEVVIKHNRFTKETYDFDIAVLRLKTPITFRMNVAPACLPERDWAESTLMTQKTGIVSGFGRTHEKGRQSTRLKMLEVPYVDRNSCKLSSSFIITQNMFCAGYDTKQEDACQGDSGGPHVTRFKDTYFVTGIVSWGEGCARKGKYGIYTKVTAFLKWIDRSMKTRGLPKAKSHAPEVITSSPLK

Nc1nc(-c2ccccn2)nn1C(=O)c1ccc([N+](=O)[O-])cc1    < 5.30
Nc1nc(-c2ccncc2)nn1C(=O)c1ccccc1    < 5.30

Kindly review the next compound as well.
pIC50 of `Nc1nc(-c2ccccn2)nn1C(=O)C1CCCCC1` , assay on Coagulation factor X (Homo sapiens, UniProt P00742), is < 5.30

====

Consider the following molecules and their measured inhibition readings.
Biological target: Prothrombin (Homo sapiens, UniProt P00734)
Test: Inhibition of human coagulation factor thrombin using Boc-Val-Pro-Arg-AMC as fluorogenic substrate at 100 nM measured at 1 min interval for 1 hr by fluorometric assay relative to control
Give a bare numeral; the unit % is implied.

Nc1nc(-c2ccccn2)nn1C(=O)Cc1ccccc1I    2
Nc1nc(-c2ccccn2)nn1C(=O)[C@H]1CCCc2ccccc21    6
Nc1nc(-c2ccccn2)nn1C(=O)c1cccc2ccccc12    13

For the next question, use this molecule.
Looking up `Nc1nc(-c2ccccn2)nn1C(=O)c1ccc2ccccc2c1` , I found its inhibition recorded as 55

====

Target: Coagulation factor XI (Homo sapiens)
Sequence (P03951 19-387 limits assumed): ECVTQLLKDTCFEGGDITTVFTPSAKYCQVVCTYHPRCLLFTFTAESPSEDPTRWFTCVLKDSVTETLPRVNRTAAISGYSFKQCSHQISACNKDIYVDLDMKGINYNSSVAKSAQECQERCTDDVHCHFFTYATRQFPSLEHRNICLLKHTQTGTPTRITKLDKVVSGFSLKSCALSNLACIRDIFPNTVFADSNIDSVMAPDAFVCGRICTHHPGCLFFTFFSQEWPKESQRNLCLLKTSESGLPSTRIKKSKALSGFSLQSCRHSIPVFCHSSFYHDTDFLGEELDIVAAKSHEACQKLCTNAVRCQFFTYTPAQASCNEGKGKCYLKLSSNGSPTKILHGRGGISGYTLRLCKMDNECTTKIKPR
Sequence (P03951 388-625 limits assumed): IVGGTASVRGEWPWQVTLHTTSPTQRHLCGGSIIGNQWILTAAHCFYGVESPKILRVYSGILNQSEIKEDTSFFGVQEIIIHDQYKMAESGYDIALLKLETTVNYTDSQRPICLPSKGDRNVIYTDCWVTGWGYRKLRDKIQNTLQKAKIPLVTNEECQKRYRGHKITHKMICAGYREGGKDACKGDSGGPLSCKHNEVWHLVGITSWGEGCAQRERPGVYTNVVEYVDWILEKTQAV
Test: Inhibition of human coagulation factor XIA using Mes-dArg-Pro-Arg-AMC as fluorogenic substrate measured at 1 min interval for 1 hr by fluorometric assay
readout_kind: IC50

Nc1nc(-c2ccccn2)nn1C(=O)c1ccc2ccccc2c1    > 5 µM

For `Nc1nc(-c2ccccn2)nn1C(=O)c1cccc2ccccc12` the compound record lists IC50 as > 5 µM

====

Target protein (sequence): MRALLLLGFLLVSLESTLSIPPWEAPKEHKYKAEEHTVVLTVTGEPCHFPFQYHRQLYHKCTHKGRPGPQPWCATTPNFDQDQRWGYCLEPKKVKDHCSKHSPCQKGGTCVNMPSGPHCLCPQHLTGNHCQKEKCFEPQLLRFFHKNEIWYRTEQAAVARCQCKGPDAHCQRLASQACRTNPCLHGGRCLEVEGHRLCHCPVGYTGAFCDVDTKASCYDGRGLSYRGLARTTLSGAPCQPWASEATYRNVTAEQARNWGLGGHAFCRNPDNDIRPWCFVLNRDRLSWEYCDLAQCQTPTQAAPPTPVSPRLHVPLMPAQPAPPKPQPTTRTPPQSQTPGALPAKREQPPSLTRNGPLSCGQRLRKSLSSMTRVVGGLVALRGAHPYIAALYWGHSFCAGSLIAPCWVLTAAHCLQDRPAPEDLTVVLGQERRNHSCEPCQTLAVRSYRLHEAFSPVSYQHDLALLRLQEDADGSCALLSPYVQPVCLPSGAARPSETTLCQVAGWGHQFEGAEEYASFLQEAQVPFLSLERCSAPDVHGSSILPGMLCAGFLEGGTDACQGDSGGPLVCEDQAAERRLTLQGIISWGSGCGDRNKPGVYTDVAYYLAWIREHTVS
param class (str): category from IC50; see ranges low end = under 300 nM, middle = from 300 nM up to 2000 nM, high end = 2000 nM and over

Here are 3 compounds together with their reported answers.
Nc1nc(-c2ccccn2)nn1C(=O)c1ccco1    middle
Nc1nc(-c2ccccn2)nn1C(=O)c1ccc(C(F)(F)F)cc1    high end
Nc1nc(-c2ccccn2)nn1C(=O)c1ccc([N+](=O)[O-])cc1    high end

Category lookup for the compound `Nc1nc(-c2ccccn2)nn1C(=O)c1ccc(NC(=O)C(F)(F)F)cc1`
low end

Which class does `Cc1cccc(C(=O)n2nc(-c3ccccn3)nc2N)c1` fall in?
low end

Form field 'band' for `Nc1nc(-c2ccccc2)nn1C(=O)c1ccccc1`
middle

Entry `Nc1nc(-c2ccccn2)nn1C(=O)c1cccnc1` belongs to which category?
middle

Field: class (IC50) — entry: `Nc1nc(Nc2cccnc2)nn1C(=O)c1ccccc1`
high end

Could you tell me which band `Nc1nc(-c2ccncc2)nn1C(=O)c1ccccc1` belongs to?
low end

Input `Nc1nc(-c2ccccn2)nn1C(=O)CNC(=O)c1ccccc1` ; output its category
high end
